TARGET_OR_TEST_SYSTEM: UDP-glucuronosyltransferase 1A4 (Homo sapiens)
Sequence (P22310 whole entry): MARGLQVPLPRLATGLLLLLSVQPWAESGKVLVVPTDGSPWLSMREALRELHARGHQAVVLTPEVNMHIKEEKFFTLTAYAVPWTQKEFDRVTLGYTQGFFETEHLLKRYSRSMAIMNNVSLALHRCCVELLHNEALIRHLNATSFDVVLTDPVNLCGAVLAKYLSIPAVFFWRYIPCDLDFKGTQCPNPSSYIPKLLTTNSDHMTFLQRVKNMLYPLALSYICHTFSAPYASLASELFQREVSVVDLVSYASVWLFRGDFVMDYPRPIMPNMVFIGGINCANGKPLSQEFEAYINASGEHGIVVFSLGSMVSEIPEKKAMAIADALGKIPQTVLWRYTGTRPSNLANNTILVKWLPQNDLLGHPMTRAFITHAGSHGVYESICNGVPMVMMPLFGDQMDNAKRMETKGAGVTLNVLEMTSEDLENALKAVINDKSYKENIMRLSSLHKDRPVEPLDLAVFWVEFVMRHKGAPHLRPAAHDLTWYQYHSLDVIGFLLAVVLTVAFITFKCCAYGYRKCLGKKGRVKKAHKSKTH
RUN_DESCRIPTION: Drug metabolism assessed as UGT1A4 (unknown origin)-mediated metabolite formation
Assay type: ADME
MEASUREMENT_LABEL: Drug metabolism

COc1ccc2cc([C@H](C)C(=O)O)ccc2c1; Metabolite_Notdetected
CC(C)Cc1ccc(C(C)C(=O)O)cc1 (centres undefined); Metabolite_Notdetected
O=C(O)Cc1ccccc1Nc1c(Cl)cccc1Cl; Metabolite_Notdetected

----------
TARGET_OR_TEST_SYSTEM: P2X purinoceptor 7 (Mus musculus) (UniProt Q9Z1M0)
RUN_DESCRIPTION: Antagonist activity at P2X7 receptor in Swiss mouse peritoneal macrophages assessed as inhibition of ATP-induced propidium iodide uptake at 10 uM after 30 mins by FLIPR assay relative to 1 mM ATP
MEASUREMENT_LABEL: inhibition (%)
Output spec: scalar in %, unitless text.

COc1ccc(-n2cc(COC(=O)c3ccccc3)nn2)cc1; 24.4
CCCCCC(=O)OCc1cn(-c2ccc(Cl)cc2)nn1; 11.1
O=Cc1cn(-c2cc(Cl)ccc2Cl)nn1; 36.7
CCCCCCCCCC(=O)OCc1cn(-c2ccccc2)nn1; 60

Recorded inhibition of OCc1cn(-c2cc(Cl)cc(Cl)c2)nn1 , please.
11.4

Recorded inhibition of OCc1cn(-c2cc(Cl)ccc2Cl)nn1 , please.
28.3

Recorded inhibition of CCOCc1cn(-c2ccc(OC)cc2)nn1 , please.
44.8

Recorded inhibition of COc1ccc(-n2cc(COC(C)=O)nn2)cc1 , please.
29.4

Recorded inhibition of CCOCc1cn(-c2ccccc2)nn1 , please.
49.3

----------
Test system: Peritoneal macrophage
RUN_DESCRIPTION: Toxicity in Swiss mouse peritoneal macrophages assessed as LDH release at 10 uM after 60 mins relative to 0.05% Triton X-100
Type: cell-based
PARTICULARS: 1 h
MEASUREMENT_LABEL: Activity (%)
Output spec: scalar in %, unitless text.

Some solved entries appear below for comparison.
CCCCC(=O)OCc1cn(-c2ccc(OC)cc2)nn1; 46.3
CCOCc1cn(-c2cc(Cl)ccc2Cl)nn1; 42.66
COc1ccc(-n2cc(CO)nn2)cc1; 9.7
CCCOCc1cn(-c2ccccc2)nn1; 14.66
OCc1cn(-c2ccccc2)nn1; 20.98

Recorded Activity of CCCOCc1cnn(-c2ccccc2)n1 , please.
13.33

Recorded Activity of O/N=C/c1cnn(-c2ccccc2)n1 , please.
12.66

----------
TARGET_OR_TEST_SYSTEM: UDP-glucuronosyltransferase 1A6 (Homo sapiens, UniProt P19224)
Sequence (P19224 whole entry): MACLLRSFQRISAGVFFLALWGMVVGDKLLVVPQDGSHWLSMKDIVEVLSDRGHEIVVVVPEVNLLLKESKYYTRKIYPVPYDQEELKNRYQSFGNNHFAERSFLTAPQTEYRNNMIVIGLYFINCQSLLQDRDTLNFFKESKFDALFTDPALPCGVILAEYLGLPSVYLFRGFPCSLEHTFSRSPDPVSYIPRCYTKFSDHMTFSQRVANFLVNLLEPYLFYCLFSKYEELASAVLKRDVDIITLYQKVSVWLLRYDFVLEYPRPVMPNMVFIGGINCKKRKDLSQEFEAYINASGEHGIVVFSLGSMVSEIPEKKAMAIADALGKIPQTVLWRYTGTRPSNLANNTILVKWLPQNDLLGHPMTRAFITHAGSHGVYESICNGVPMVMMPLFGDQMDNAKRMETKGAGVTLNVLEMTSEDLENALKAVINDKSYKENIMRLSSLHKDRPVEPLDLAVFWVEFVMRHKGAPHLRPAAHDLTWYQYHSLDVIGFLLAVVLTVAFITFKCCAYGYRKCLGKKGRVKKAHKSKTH
RUN_DESCRIPTION: Drug metabolism assessed as UGT1A6 (unknown origin)-mediated metabolite formation
Type: ADME
MEASUREMENT_LABEL: Drug metabolism

O=C(O)Cc1ccccc1Nc1c(Cl)cccc1Cl [DICLOFENAC]; Metabolite_Notdetected
CC(C)Cc1ccc(C(C)C(=O)O)cc1 (centres undefined) [IBUPROFEN]; Metabolite_Detected
CCOCc1cn(-c2ccc(Cl)cc2)nn1; Metabolite_Notdetected
COc1ccc2cc([C@H](C)C(=O)O)ccc2c1 [NAPROXEN]; Metabolite_Detected

----------
RUN_DESCRIPTION: Kinetic solubility in pH 4 citrate buffer at 1 to 250 uM after 2 hrs
Assay type: physicochemical
PARTICULARS: read-out: Kinetic_solubility
MEASUREMENT_LABEL: solubility kinetic at 2 h

Recorded solubility kinetic at 2 h of CCOCc1cn(-c2ccc(Cl)cc2)nn1 , please.
< 250 µM

----------
TARGET_OR_TEST_SYSTEM: P2X purinoceptor 7 (Mus musculus, UniProt Q9Z1M0)
Sequence (Q9Z1M0 whole entry): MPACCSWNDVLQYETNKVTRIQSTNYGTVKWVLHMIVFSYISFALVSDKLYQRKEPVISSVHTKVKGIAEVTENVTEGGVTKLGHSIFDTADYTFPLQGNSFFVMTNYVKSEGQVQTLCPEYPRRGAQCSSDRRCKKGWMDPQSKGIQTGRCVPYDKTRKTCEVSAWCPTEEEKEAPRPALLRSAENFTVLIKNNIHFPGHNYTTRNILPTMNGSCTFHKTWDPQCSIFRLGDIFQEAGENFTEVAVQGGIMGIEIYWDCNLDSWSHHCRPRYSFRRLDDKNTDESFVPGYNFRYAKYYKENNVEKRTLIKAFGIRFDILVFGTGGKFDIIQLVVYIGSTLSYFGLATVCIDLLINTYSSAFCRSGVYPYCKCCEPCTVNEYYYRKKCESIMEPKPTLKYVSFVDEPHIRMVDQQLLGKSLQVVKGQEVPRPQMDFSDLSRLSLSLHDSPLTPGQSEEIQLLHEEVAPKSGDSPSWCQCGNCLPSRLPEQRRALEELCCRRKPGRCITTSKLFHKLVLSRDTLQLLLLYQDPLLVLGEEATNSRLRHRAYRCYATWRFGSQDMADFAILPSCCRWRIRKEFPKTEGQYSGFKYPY
RUN_DESCRIPTION: Antagonist activity at P2X7 receptor in Swiss mouse peritoneal macrophages assessed as inhibition of ATP-induced current at holding potential of -60 mV preincubated for 5 mins followed by ATP addition measured after 5 mins by Whole cell patch-clamp analysis
The entries below come with measured pIC50 values attached.
Schema: pIC50 number; meaning minus log10 of the concentration expressed in molar units.

CCCCCCCCCC(=O)OCc1cn(-c2ccc(Cl)cc2)nn1; 6.99
OCc1cnn(-c2ccccc2)n1; 7.09
CCOCc1cn(-c2ccc(Cl)cc2)nn1; 7.16
CCCCOCc1cn(-c2cc(Cl)ccc2Cl)nn1; 6.50

Recorded pIC50 of O/N=C/c1cnn(-c2ccccc2)n1 , please.
6.34

----------
The entries below come with measured Activity values attached.
Tested on: Peritoneal macrophage
RUN_DESCRIPTION: Toxicity in Swiss mouse peritoneal macrophages assessed as LDH release at 10 uM after 60 mins relative to 0.05% Triton X-100
Type: cell-based
PARTICULARS: 1 h
Output spec: scalar in %, unitless text.

Some solved entries appear below for comparison.
CCOCc1cn(-c2ccc(OC)cc2)nn1; 20.66
CCCCCCCCCC(=O)OCc1cnn(-c2ccccc2)n1; 42.5
OCc1cn(-c2ccc(Cl)cc2)nn1; 15.57
CC(=O)OCc1cn(-c2cc(Cl)ccc2Cl)nn1; 32

Next molecule, please.
Recorded Activity of CCOCc1cn(-c2cc(Cl)cc(Cl)c2)nn1 , please.
34

----------
The entries below come with measured inhibition values attached.
TARGET_OR_TEST_SYSTEM: P2X purinoceptor 7 (Mus musculus) (UniProt Q9Z1M0)
RUN_DESCRIPTION: Antagonist activity at P2X7 receptor in Swiss mouse peritoneal macrophages assessed as inhibition of ATP-induced propidium iodide uptake at 10 uM after 30 mins by FLIPR assay relative to 1 mM ATP
Output spec: scalar in %, unitless text.

Some solved entries appear below for comparison.
O=C(OCc1cn(-c2cc(Cl)ccc2Cl)nn1)c1ccccc1; 11
CCOCc1cn(-c2ccc(Cl)cc2)nn1; 84.7
CC(=O)OCc1cnn(-c2ccccc2)n1; 73.5

Next molecule, please.
Recorded inhibition of CCCOCc1cn(-c2ccc(Cl)cc2)nn1 , please.
32.5

----------
TARGET_OR_TEST_SYSTEM: P2X purinoceptor 7 (Mus musculus)
RUN_DESCRIPTION: Antagonist activity at P2X7 receptor in Swiss mouse peritoneal macrophages assessed as inhibition of ATP-induced current at holding potential of -60 mV preincubated for 5 mins followed by ATP addition measured after 5 mins by Whole cell patch-clamp analysis
The entries below come with measured IC50 values attached.
Output spec: scalar in nM, unitless text.

Form: Entry = CCOc1ccc(Nc2ccc(/C(=C3C=C/C(=[N+](/CC)Cc4cccc(S(=O)(=O)[O-])c4)C=C/3C)c3ccc(N(CC)Cc4cccc(S(=O)(=O)[O-])c4)cc3C)cc2)cc1.[Na+] [BRILLIANT BLUE G] | System = P2X purinoceptor 7 (Mus musculus) | IC50 = ____
109

Form: Entry = COc1ccc(-n2cc(CO)nn2)cc1 | System = P2X purinoceptor 7 (Mus musculus) | IC50 = ____
341

Form: Entry = O=Cc1cn(-c2ccccc2)nn1 | System = P2X purinoceptor 7 (Mus musculus) | IC50 = ____
103
